Target: sigma receptor
Experiment: [3H]DTG displacement radioligand binding assay, guinea pig brain membranes
Details: Example 25; guinea pig brain membrane homogenates; read-out: IC50 binding values
Counter-ions that a name gives are not always drawn.
readout_kind: IC50
The answer should read as a number with its unit following.

Look over these answered cases.
[[record]]
compound = "Cc1ccccc1NC(=N)NC1CCCCC1"
val = "0.013 µM"

[[record]]
compound = "CC(C)(C)NC(=N)Nc1ccccc1I [N-(o-iodophenyl)-N'-(t-butyl)guanidine]"
val = "0.02 µM"

[[record]]
compound = "N=C(NC1CCCCC1)NC12CC3CC(CC(C3)C1)C2 [AdChG, HCl]"
val = "0.0125 µM"

[[record]]
compound = "Cc1cc(Br)ccc1NC(=N)Nc1ccc(Br)cc1C [Example 4-Br--DTG]"
val = "0.037 µM"

[[record]]
compound = "Cc1ccccc1NC(=N)NC12CC3CC(C)(CC(C)(C3)C1)C2"
val = "0.015 µM"

[[record]]
compound = "Cc1ccccc1NC(=N)Nc1c(C)cccc1C"
val = "0.07 µM"

[[record]]
compound = "N=C(NC12CC3CC(CC(C3)C1)C2)NC12CC3CC(CC(C3)C1)C2 [DAG, N,N'-di-(adamantan-1-yl)guanidine]"
val = "0.0118 µM"

[[record]]
compound = "N=C(Nc1ccccc1[N+](=O)[O-])NC12CC3CC(CC(C3)C1)C2"
val = "0.03 µM"


# evaluate next
# IC50 of N=C(NC1CC2CCC1C2)NC1CC2CCC1C2 (racemic) [N,N'-di-((±)-endo-2-norbornyl)guanidine] = 0.016 µM

# credit: patent US5574070A
